// provenance: paper doi:10.1101/2021.07.15.452438

# assay_system: BRD4-ET domain (for ITC) (UniProt O60885 600-678)
# assay_text: ITC
experimental_endpoint: Kd (nM)
Numbers only, in nM.

Worked cases, answers included:
binder="PKVPPIRIQLSRIKPPWVVKG (domain or fragment) [His6MBP-fused ASXL1^567-587]" experimental_endpoint=Kd data_value=1360
binder="His6MBP-ASXL1^537-587 (domain or fragment) EKKPRLEDRQSFRNTIESVHTEKPQPTKEEPKVPPIRIQLSRIKPPWVVKG" experimental_endpoint=Kd data_value=1300
binder="His6MBP-ASXL2^582-634 (domain or fragment) EKRPRVTENRQHQQPFQVSPQPFLNRGDRIQVRKVPPLKIPVSRISPMPFHPS" experimental_endpoint=Kd data_value=1100

Pending binder:
IN: Report Kd for His6MBP-ASXL3^977-1027 (domain or fragment) EKRARIEDDQSTRNISSSSPPEKEQPPREEPRVPPLKIQLSKIGPPFIIKS please.
OUT: 2000
